System: Saccharomyces cerevisiae
Experiment: protein stability index of tFT-peptide fusion (C-terminal peptide) (PSI (0-1 scale)); higher = more stable (slower turnover)
Conditions: genetic background: wild type; temperature: 30 C
READOUT NAME: protein stability index
Format: numeric value only, no unit, no commentary.

Form field: reported protein stability index of KKSPGGPRQRIK [MAP1 C-terminal 12 aa]
0.692

And SMKYPHTAALVR [YLR111W C-terminal 12 aa] ?
0.653

Can you handle LQESKSQEKNKI [MRX19 C-terminal 12 aa] next?
0.782

Now the sequence IDNVIISGKDEY [CCT5 C-terminal 12 aa]
0.653

Try the sequence KMDKRAKTSDSA [RPL8B C-terminal 12 aa]
0.68

What do you get for SKFIEKFQDIVS [MED1 C-terminal 12 aa] ?
0.712

// same read-out, input: SANGYKRRRYGN [YHC1 C-terminal 12 aa]
0.732

Note, next up: ILWLKLEKRIEN [YLR339C C-terminal 12 aa]
0.703

Check EEKKKQEEGHSN [MNN4 C-terminal 12 aa] too.
0.663

Request: GPYWKRVVAFWC [AGP1 C-terminal 12 aa]
0.549

And then NIGSPLGAPKKK [MBF1 C-terminal 12 aa] , what is it?
0.701

What about MTDFSSSIIKGK [YCR090C C-terminal 12 aa] ?
0.677

Now the same for RKVPYKIIPYVY [ERG24 C-terminal 12 aa]
0.5

Also need SAGSLEYTARYM [YML012C-A C-terminal 12 aa] , thanks.
0.671

Same question for LLIQEEMKLKEV [YPK9 C-terminal 12 aa] please.
0.703

How about this sequence: NASYTKKYVPHP [YPR059C C-terminal 12 aa]
0.703

Param item: VVGRYMRSGLKK [NOP1 C-terminal 12 aa]
0.682

Request: TDEFDMLIGIDH [COG6 C-terminal 12 aa]
0.707

Also check LNLPWKRKKTTI [YCR101C C-terminal 12 aa]
0.686

Another sequence to check: RYNDERLGPVQG [IRC24 C-terminal 12 aa]
0.684

Follow-up entry: VGRKPRLPKGKL [YCL002C C-terminal 12 aa]
0.842

Entry LSFVLASLNANK [FUN14 C-terminal 12 aa] please
0.67

Same thing, different sequence: TEKKINTRPPFR [DAM1 C-terminal 12 aa]
0.656

Follow-up entry: LMGAALAAVMLL [FIT3 C-terminal 12 aa]
0.641

Next sequence up: KEASRRFDAGKI [SOD2 C-terminal 12 aa]
0.679

And the next one, EASEPFKTFKNT [MMS22 C-terminal 12 aa] ?
0.696

Also need TSLEKQINSIKK [NSP1 C-terminal 12 aa] , thanks.
0.702

Same question for KELEFGLDRKYF [SLT2 C-terminal 12 aa] please.
0.68

Further, for RHHEQSHGQEDH [YLR361C-A C-terminal 12 aa] ?
0.687

Similarly, SLSARKINMRKV [KRE9 C-terminal 12 aa] ?
0.644

Item: SQSKIKAKIRPE [YJL193W C-terminal 12 aa]
0.666

Param item: LCSIYKALLLGP [ATF1 C-terminal 12 aa]
0.67
